# tgt: GluN1/GluN2B receptor (rat GluN1-1a, mouse GluN2B) (Rattus norvegicus; Mus musculus, UniProt P35439+Q01097, P35439:L135H)
# Construct: full-length receptors from pcDNA3-based plasmids, Xenopus laevis oocytes, cDNA ratio 1:1; heterotetramer, usually two GluN1 and two GluN2
# assayNotes: two-electrode voltage clamp, Xenopus oocytes
pIC50: −log10 of the molar value.
observedProperty: pIC50

> print(dat)
                               smilestext  reportedvalue
1  Cc1nccn1Cc1cc(-c2ccc(F)c(C(F)F)c2)cnn1           7.15

###

# tgt: GluN1/GluN2B receptor (rat GluN1-1a, mouse GluN2B) (Rattus norvegicus; Mus musculus, UniProt P35439+Q01097, P35439:Y109S)
# Construct: full-length receptors from pcDNA3-based plasmids, Xenopus laevis oocytes, cDNA ratio 1:1; heterotetramer, usually two GluN1 and two GluN2
# Sequence (Q01097 27-1482, other chains not shown): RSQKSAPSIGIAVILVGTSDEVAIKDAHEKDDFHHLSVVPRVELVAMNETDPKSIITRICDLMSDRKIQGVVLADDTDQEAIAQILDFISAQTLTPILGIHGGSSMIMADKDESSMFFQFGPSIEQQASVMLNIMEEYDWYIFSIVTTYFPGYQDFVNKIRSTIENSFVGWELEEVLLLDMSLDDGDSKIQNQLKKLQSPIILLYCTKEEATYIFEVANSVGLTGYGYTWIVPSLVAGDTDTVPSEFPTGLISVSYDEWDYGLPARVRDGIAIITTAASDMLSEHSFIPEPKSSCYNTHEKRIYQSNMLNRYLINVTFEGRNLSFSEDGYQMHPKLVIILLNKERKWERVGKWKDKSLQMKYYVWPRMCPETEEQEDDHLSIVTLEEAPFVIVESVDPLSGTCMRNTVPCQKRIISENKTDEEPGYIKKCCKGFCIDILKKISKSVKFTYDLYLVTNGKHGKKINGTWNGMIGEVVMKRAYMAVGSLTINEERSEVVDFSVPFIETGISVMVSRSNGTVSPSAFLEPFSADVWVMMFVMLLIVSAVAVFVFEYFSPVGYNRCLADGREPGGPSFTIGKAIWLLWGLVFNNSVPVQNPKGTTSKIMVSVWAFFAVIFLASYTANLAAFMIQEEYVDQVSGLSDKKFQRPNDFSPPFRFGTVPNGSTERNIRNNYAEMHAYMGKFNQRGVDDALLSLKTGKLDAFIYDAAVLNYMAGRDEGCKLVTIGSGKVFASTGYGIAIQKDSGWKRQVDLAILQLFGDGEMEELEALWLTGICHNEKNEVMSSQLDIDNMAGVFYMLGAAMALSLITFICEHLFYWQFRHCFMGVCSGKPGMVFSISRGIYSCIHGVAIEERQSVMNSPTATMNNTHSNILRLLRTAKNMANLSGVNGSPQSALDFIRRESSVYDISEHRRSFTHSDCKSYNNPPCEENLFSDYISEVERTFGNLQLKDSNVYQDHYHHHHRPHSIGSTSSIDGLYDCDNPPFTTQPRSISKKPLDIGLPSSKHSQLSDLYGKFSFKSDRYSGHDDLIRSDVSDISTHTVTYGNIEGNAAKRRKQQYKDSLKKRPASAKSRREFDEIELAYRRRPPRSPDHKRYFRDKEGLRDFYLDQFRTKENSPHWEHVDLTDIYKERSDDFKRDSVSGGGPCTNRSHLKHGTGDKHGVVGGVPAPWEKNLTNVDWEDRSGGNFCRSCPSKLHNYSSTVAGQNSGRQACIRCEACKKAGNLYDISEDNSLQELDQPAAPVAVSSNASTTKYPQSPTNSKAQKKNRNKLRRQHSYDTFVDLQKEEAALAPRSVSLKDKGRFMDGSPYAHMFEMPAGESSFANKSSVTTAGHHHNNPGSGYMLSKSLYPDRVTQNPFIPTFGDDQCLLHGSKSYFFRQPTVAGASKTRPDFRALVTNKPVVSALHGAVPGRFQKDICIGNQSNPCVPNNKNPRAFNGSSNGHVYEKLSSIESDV
# assayNotes: two-electrode voltage clamp, Xenopus oocytes
observedProperty: IC50 (µM)

> print(dat)
                               smilestext  unitsymbol  reportedvalue
1  Cc1nccn1Cc1cc(-c2ccc(F)c(C(F)F)c2)cnn1          µM           9.62

###

# tgt: GluN1/GluN2B receptor (rat GluN1-1a, mouse GluN2B) (Rattus norvegicus; Mus musculus, UniProt P35439+Q01097, Q01097:A135P)
# Construct: full-length receptors from pcDNA3-based plasmids, Xenopus laevis oocytes, cDNA ratio 1:1; heterotetramer, usually two GluN1 and two GluN2
# Sequence (Q01097 27-1482 A135P, other chains not shown): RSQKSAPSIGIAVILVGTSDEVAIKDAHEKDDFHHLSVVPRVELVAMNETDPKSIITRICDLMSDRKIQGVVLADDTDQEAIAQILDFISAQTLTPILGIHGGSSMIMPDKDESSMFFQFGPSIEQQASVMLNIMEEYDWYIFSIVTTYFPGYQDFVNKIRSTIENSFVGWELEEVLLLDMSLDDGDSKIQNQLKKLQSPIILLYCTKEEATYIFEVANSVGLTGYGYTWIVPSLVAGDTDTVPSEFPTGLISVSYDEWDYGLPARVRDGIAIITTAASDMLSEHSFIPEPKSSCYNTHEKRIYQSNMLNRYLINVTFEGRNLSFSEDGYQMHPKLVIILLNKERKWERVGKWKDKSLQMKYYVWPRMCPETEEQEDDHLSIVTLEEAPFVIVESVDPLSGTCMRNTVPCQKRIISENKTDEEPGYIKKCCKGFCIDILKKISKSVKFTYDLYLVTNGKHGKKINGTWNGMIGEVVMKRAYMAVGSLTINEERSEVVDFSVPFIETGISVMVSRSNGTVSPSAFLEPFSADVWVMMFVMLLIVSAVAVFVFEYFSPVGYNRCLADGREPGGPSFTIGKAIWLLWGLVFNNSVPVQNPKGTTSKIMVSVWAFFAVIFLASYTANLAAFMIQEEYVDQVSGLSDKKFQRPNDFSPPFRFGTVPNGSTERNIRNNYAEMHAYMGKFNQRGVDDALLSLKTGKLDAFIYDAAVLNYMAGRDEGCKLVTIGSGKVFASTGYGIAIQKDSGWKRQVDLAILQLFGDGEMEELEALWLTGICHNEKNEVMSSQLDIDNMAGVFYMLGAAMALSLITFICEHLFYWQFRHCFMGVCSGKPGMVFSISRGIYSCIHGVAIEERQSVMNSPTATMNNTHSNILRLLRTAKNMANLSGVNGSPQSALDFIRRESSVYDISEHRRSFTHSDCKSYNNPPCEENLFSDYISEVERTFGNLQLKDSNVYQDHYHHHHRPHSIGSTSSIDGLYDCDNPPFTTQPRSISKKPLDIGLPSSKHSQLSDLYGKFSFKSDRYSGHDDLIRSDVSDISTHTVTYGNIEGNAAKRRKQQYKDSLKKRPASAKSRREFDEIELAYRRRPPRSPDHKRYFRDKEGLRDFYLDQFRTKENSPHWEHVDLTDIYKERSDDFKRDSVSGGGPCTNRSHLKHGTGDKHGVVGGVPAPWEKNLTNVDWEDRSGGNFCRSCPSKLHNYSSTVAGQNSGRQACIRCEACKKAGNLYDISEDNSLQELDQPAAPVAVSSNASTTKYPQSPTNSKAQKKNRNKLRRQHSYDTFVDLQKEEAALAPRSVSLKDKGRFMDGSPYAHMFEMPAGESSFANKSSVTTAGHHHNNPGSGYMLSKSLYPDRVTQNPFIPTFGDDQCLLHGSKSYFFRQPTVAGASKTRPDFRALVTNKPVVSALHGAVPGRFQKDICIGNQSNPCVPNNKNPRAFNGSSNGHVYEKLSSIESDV
# assayNotes: two-electrode voltage clamp, Xenopus oocytes
# Source text: two-electrode voltage clamp, Xenopus oocytes on GluN1/GluN2B receptor (rat GluN1-1a, mouse GluN2B)
observedProperty: IC50 (nM)

> print(dat)
                                   compound  observedproperty  reportedvalue
1  Cc1nccn1Cc1cc(-c2ccc(F)c(C(F)F)c2)cnn1 [compound 1]              IC50            404

###

# tgt: GluN1/GluN2B receptor (rat GluN1-1a, mouse GluN2B) (Rattus norvegicus; Mus musculus, UniProt P35439+Q01097)
# Construct: full-length receptors from pcDNA3-based plasmids, Xenopus laevis oocytes, cDNA ratio 1:1; heterotetramer, usually two GluN1 and two GluN2
# assayNotes: two-electrode voltage clamp, Xenopus oocytes
observedProperty: IC50

> print(dat)
                               smilestext  observedproperty  reportedvalue
1  Cc1nccn1Cc1cc(-c2ccc(F)c(C(F)F)c2)cnn1              IC50          12 nM

###

# tgt: GluN1/GluN2B receptor (rat GluN1-1a, mouse GluN2B) (Rattus norvegicus; Mus musculus, UniProt P35439+Q01097, Q01097:Q110G)
# Construct: full-length receptors from pcDNA3-based plasmids, Xenopus laevis oocytes, cDNA ratio 1:1; heterotetramer, usually two GluN1 and two GluN2
# Sequence (Q01097 27-1482 Q110G, other chains not shown): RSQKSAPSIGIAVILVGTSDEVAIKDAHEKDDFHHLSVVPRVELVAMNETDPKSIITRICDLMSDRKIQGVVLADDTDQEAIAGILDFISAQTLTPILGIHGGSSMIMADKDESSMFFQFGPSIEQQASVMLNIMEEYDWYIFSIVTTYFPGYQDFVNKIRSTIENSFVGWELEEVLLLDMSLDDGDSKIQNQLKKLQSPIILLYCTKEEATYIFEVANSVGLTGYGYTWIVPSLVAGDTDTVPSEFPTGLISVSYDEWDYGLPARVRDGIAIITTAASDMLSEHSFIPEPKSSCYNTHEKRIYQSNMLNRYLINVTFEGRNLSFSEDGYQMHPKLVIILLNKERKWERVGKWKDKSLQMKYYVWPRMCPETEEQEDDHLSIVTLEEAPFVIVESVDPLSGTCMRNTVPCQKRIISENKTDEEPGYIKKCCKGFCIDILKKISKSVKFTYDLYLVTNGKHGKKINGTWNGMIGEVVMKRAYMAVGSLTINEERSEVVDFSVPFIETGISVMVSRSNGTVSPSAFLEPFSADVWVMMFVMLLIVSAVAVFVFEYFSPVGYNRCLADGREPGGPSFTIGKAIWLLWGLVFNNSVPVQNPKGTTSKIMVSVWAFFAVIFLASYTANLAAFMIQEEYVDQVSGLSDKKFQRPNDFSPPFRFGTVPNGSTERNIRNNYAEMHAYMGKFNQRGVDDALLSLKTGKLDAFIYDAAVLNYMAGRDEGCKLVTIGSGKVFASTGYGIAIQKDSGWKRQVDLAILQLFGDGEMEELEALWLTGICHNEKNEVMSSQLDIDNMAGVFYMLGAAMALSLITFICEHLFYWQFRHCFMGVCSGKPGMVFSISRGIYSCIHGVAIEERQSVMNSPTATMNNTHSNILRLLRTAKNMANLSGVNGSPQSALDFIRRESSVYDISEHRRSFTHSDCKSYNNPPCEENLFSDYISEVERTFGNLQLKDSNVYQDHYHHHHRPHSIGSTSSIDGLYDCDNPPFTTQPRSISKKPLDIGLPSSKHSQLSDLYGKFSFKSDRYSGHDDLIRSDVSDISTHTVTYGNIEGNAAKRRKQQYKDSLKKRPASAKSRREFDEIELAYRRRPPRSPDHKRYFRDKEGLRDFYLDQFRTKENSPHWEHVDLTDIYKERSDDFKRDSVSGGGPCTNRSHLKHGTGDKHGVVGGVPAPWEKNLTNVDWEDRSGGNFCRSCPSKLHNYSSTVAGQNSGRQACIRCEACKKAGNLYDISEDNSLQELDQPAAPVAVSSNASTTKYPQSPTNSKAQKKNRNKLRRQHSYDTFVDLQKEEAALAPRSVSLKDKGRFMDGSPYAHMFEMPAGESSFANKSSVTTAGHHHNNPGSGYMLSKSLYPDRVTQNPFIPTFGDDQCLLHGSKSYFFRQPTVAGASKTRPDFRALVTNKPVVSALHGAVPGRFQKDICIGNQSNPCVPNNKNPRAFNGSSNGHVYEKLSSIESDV
# assayNotes: two-electrode voltage clamp, Xenopus oocytes
observedProperty: IC50 (nM)

> print(dat)
                               smilestext  unitsymbol  reportedvalue
1  Cc1nccn1Cc1cc(-c2ccc(F)c(C(F)F)c2)cnn1          nM            502

###

# tgt: GluN1/GluN2B receptor (rat GluN1-1a, mouse GluN2B) (Rattus norvegicus; Mus musculus, UniProt P35439+Q01097, P35439:Y109C)
# Construct: full-length receptors from pcDNA3-based plasmids, Xenopus laevis oocytes, cDNA ratio 1:1; heterotetramer, usually two GluN1 and two GluN2
# assayNotes: two-electrode voltage clamp, Xenopus oocytes
observedProperty: IC50 (µM)

> print(dat)
                               smilestext  reportedvalue
1  Cc1nccn1Cc1cc(-c2ccc(F)c(C(F)F)c2)cnn1            7.3
